Data origin: ChEMBL document CHEMBL1817572

// Ratio EC50 lookup, one value per entry
# Organism: Homo sapiens
# protocol.summary: Selectivity ratio of EC50 for human oxytocin receptor to EC50 for human vasopressin V1a receptor
Bridge positions count the residues as written; N and C are the ends. Square brackets hold non-standard residues; d marks the D form. Peptide text beside a SMILES is read from it. Orn = NCCC[C@H](N)C(=O)O; Dab = NCC[C@H](N)C(=O)O

Please review the entries below; each comes with its answer.
# compound, Ratio EC50
records = [
    ("CCNC(=O)CC[C@@H]1NC(=O)[C@H]([C@@H](C)CC)NC(=O)[C@H](Cc2ccccc2)NC(=O)[C@@H](N)CSSC[C@@H](C(=O)N2CCC[C@H]2C(=O)N[C@@H](CCCN)C(=O)NCC(N)=O)NC(=O)[C@H](CC(N)=O)NC1=O (H-CFIE(NHEt)NCP[Orn]G-NH2; disulfide 1-6)", "> 250"),
    ("CC[C@H](C)[C@@H]1NC(=O)[C@H](Cc2ccccc2)NC(=O)[C@@H](N)CSSC[C@@H](C(=O)N2CCC[C@H]2C(=O)N[C@@H](CCN)C(=O)NCC(N)=O)NC(=O)[C@H](CC(N)=O)NC(=O)[C@H](CC(=O)NC)NC1=O (H-CFID(NHMe)NCP[Dab]G-NH2; disulfide 1-6)", "> 2500"),
]

// query Given the compound CC[C@H](C)[C@@H]1NC(=O)[C@H](Cc2ccccc2)NC(=O)[C@@H](N)CSSC[C@@H](C(=O)N2CCC[C@H]2C(=O)N[C@@H](CCN)C(=O)NCC(N)=O)NC(=O)[C@H](CC(N)=O)NC(=O)[C@H](CC(N)=O)NC1=O (H-CFINNCP[Dab]G-NH2; disulfide 1-6) , what is its reported Ratio EC50?
// result > 3400
